Target: human CCR1 (Homo sapiens)
Sequence (P32246 1-355): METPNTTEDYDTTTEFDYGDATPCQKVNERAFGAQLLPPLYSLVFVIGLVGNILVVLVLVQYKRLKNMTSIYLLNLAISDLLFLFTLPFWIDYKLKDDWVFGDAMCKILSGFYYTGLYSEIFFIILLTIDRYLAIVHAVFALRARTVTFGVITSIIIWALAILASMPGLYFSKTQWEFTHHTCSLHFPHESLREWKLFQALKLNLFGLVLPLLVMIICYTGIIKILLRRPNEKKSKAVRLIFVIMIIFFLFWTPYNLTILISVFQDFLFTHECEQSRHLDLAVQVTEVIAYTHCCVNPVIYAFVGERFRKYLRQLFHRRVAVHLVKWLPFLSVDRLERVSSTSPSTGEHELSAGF
Measured IC50 of individual entries
measuredMetric: IC50 (nM)

- compound: "CCC(=O)Nc1ccc(O)cc1OC[C@@H](O)CNC1CCN(Cc2ccc(Cl)cc2)CC1 [Comparison 9]"
  number: 13.6
- compound: "CCC(=O)Nc1cc(Cl)c(O)cc1OC[C@@](C)(O)CNC1CCN(Cc2ccc(Cl)cc2)CC1 [Example 1, di-trifluoroacetate]"
  number: 0.4
- compound: "CC(=O)Nc1ccc(O)cc1OC[C@@H](O)CNC1CCN(Cc2ccc(Cl)cc2)CC1 [Comparison 8]"
  number: 4.5
- compound: "CCC(=O)Nc1ccc(O)cc1OC[C@@](C)(O)CNC1CCN(Cc2ccc(Cl)cc2)CC1 [Comparison 1]"
  number: 7
